Overview of reported IC50 across a group of compounds:
- measuredOn: 15-PGDH (Homo sapiens, UniProt P15428)
- Construct: GST (glutathione S-transferase, pGEX 4T3) (N, cleaved yes); made in house; host or cells: E. coli BL21DE3plys
- Sequence (P15428 whole entry): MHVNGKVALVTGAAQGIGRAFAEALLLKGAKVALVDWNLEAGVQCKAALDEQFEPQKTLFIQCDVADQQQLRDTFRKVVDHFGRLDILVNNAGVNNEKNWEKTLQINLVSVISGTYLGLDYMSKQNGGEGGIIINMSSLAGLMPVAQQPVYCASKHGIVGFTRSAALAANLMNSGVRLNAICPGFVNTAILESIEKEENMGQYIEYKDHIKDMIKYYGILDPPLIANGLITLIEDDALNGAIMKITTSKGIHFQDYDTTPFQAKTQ
- assayProcedure: 15-PGDH test (maximum reaction rate, optical density at 340 nm)
- Format: biochemical
- cond: protocol of Example 3
propertyName: IC50 (µM)

[[record]]
compound = "COc1ccccc1NC(=O)Cn1nnc(-c2ccccc2)n1"
propertyname = "IC50"
valueunit = "µM"
experimentalresult = 55

[[record]]
compound = "Cc1ccc(NC(=O)Cn2nnc(-c3cccc(C(F)(F)F)c3)n2)cc1 [Compound R29A]"
propertyname = "IC50"
valueunit = "µM"
experimentalresult = 30

